target: T1, human GPC3 on cells (human, UniProt P51654 25-554); assay: FACS, HEPG2 cells
T1 construct: whole, on cells; over-expressed on CHOK1 cells or endogenous on HEPG2, Hep3B and Huh-7 hepatocellular carcinoma cells; the cell line is named under assay; also called GPC3-CHOK1 cells; human GPC3 over-expressed CHOK1 cells
Measured Parameter: EC50 (µg/mL)
One number for each entry, in µg/mL.

Binder: 52H5D3B8-6#-VH2+VL1 (antibody, V domains shown, humanized) VH: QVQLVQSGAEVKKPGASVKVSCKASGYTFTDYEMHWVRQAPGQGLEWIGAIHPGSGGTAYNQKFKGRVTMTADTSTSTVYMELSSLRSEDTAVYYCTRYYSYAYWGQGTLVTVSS VL: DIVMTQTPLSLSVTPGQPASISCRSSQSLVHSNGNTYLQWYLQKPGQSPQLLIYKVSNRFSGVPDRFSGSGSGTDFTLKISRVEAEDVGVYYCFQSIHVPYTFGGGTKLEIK
Unit Of Measure: µg/mL
Reported: 0.0479

Please examine the following record next.
Entry under test: 52H5D3B8-6#-VH1+VL2 (antibody, V domains shown, humanized) VH: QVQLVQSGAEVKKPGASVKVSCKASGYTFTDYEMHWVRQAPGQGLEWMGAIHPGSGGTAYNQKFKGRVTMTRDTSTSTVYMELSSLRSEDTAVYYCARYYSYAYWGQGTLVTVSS VL: DIVMTQTPLSLSVTPGQPASISCRSSQSLVHSNGNTYLQWYLQKPGQSPQLLIYKVSNRFSGVPDRFSGSGSGTDFTLKISRVEAEDVGVYFCFQSIHVPYTFGGGTKLEIK . Its EC50 was 0.043

Cited source: patent US20240409663A1
